Recorded values, source patent EP1149092B1.

- System: IL-6
- run-description: MG-63 Cell-Based Assay, IL-6 release after IL-1β stimulation (ELISA)
- conditions-used: Homo sapiens, MG63 cells, IL-1β stimulated, 24 hours with compound, read-out: IC50 (µM) in MG63 Cells IL6
Entries and their measured IC50 follow.

{"compound": "C#CC(O)c1cccn1C (stereo not shown) [Z]", "tested-on": "IL-6", "result": "< 20 µM"}
{"compound": "COc1cc[nH]c1/C=C1\\C(=O)Nc2ccc(NC(=O)Cc3cccs3)c(C#Cc3cccnc3)c21 [III]", "tested-on": "IL-6", "result": "20 µM"}
{"compound": "COc1cc[nH]c1/C=C1\\C(=O)Nc2cccc(C#CC(O)c3ccc(N(C)C)cc3)c21 (racemic) [R]", "tested-on": "IL-6", "result": "< 20 µM"}

Now for another entry.
Let me know recorded IC50 for COc1cc[nH]c1/C=C1\C(=O)Nc2cccc(C#CC(O)c3ccccc3)c21 (racemic) [FFF] , thanks.
< 20 µM
